Test system: HeLa cells (cervical carcinoma)
Assay: MTT cytotoxicity test on adherent HeLa cells
Format: cell-based, human
Settings: Homo sapiens; HeLa, 24h; read-out: IC50
pIC50: −log10 of the molar value.
assay-metric: pIC50

> print(dat)
                                   compound                 target.or.system  assay.metric  observed.value
1  CCCCCCCCCC[P+](c1ccccc1)(c1ccccc1)c1ccccc1.[I-] [Compound 1a, n-decyltriphenylphosphonium iodide]  HeLa cells (cervical carcinoma)         pIC50            5.15
2  CCCCCCCCCCCCCCCC[P+](c1ccccc1)(c1ccccc1)c1ccccc1.[I-] [Compound 1b, triphenyl-n-hexadecylphosphonium iodide]  HeLa cells (cervical carcinoma)         pIC50            5.30

###

Tested on: K562 cells (chronic myelogenous leukemia)
Assay: MTT cytotoxicity test on suspension K562 cells
Assay type: cell-based, human
Details: K562, 48 h (Table 2, compound 1c); read-out: IC50 48 h
assay-metric: IC50 (µM)

> print(dat)
                                   compound  display.unit  observed.value
1  BrCc1ccc(-c2ccc(C[P+](c3ccccc3)(c3ccccc3)c3ccccc3)cc2)cc1 [Compound 1c]            µM               5

###

System: HeLa cells (cervical carcinoma)
Experiment: MTT cytotoxicity test on adherent HeLa cells
Assay type: cell-based, human
Conditions: Homo sapiens; HeLa, 48 h (Table 2, compound 1c); read-out: IC50 48 h
Source text: […]
assay-metric: IC50

> print(dat)
                           structure.string                 target.or.system  assay.metric  observed.value
1  BrCc1ccc(-c2ccc(C[P+](c3ccccc3)(c3ccccc3)c3ccccc3)cc2)cc1  HeLa cells (cervical carcinoma)          IC50           30 µM
